Recorded selective drug sensitivity score, one value per entry.
system: COG-LL-355h; assay: selective drug sensitivity score (sDSS, relative to normal bone marrow) (sDSS (score)); higher = more potent and effective on the cell line relative to normal bone marrow cells; details: 72 h;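 note: ALL cell lines in 384-well plates, five doses spanning 10,000-fold, each plate scaled between vehicle and 100 µmol/L benzalkonium chloride controls, sDSS an adapted area-under-curve metric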
In your answer, state the number alone without any accompanying words.

### Prompt So what does the record say about selective drug sensitivity score for Cc1[nH]c2ccccc2c1CCNCc1ccc(/C=C/C(=O)NO)cc1 [Panobinostat] (top concentration 1000 nM) ?
### Response 4.84

### Prompt So what does the record say about selective drug sensitivity score for COc1cc2ncnc(Oc3cccc(NC(=O)Nc4cc(C(C)(C)C(F)(F)F)on4)c3)c2cc1OC (top concentration 10000 nM) ?
### Response 4.9

### Prompt So what does the record say about selective drug sensitivity score for NC(=O)Nc1cc(-c2cccc(F)c2)sc1C(=O)N[C@H]1CCCNC1 [AZD7762] (top concentration 1000 nM) ?
### Response -0.1

### Prompt So what does the record say about selective drug sensitivity score for Cn1cc(-c2cnn3c(N)c(Br)c([C@@H]4CCCNC4)nc23)cn1 [MK-8776] (top concentration 2500 nM) ?
### Response 0.54

----------
tested on: TMD5; test: selective drug sensitivity score (sDSS, relative to normal bone marrow) (sDSS (score)); higher = more potent and effective on the cell line relative to normal bone marrow cells; conditions: 72 h
Binary classification by selective drug sensitivity score, with 0 as an inclusive lower bound for satisfied; all other cases are not satisfied.

Examples with answers:
>  <compound>
CO[C@@H](C(=O)N1Cc2[nH]nc(NC(=O)c3ccc(N4CCN(C)CC4)cc3)c2C1)c1ccccc1 [Danusertib] (top concentration 10000 nM)

>  <target_desc>
TMD5

>  <classification>
satisfied

$$$$
>  <compound>
CC[C@@](C)(Nc1ccnc(-c2c[nH]c3ncccc23)n1)C(=O)NCC(F)(F)F [Decernotinib] (top concentration 10000 nM)

>  <target_desc>
TMD5

>  <classification>
not satisfied

$$$$
>  <compound>
C1=N/C2=N/c3ccc(OCCN4CCCC4)c(c3)COC/C=C/COCc3cccc(c3)C(=C1)N2 [Pacritinib] (top concentration 10000 nM)

>  <target_desc>
TMD5

>  <classification>
not satisfied

$$$$
>  <compound>
O=C(Nc1ccc(OC(F)(F)Cl)cc1)c1cnc(N2CC[C@@H](O)C2)c(-c2cc[nH]n2)c1 [Asciminib] (top concentration 1000 nM)

>  <target_desc>
TMD5

>  <classification>
satisfied

$$$$
>  <compound>
COc1cc(OC2CCN(C)CC2)ccc1Nc1ncc2c(n1)n(C1CCCC1)c(=O)n2C [AZ3146] (top concentration 10000 nM)

>  <target_desc>
TMD5

>  <classification>
not satisfied

$$$$

### Prompt Determine whether measured selective drug sensitivity score meets or exceeds 0 for Cc1ccc(NC(=O)c2ccc(CN3CCN(C)CC3)cc2)cc1Nc1nccc(-c2cccnc2)n1 [Imatinib] (top concentration 10000 nM)
### Response satisfied

### Prompt Determine whether measured selective drug sensitivity score meets or exceeds 0 for Nc1cc(F)ccc1NC(=O)/C=C/c1cnn(C/C=C/c2ccccc2)c1 [RGFP966] (top concentration 10000 nM)
### Response satisfied

### Prompt Determine whether measured selective drug sensitivity score meets or exceeds 0 for CNC(=O)c1cc(COc2nnc(Nc3ccc(Cl)cc3)c3ccoc23)ccn1 [Telatinib] (top concentration 10000 nM)
### Response satisfied

### Prompt Determine whether measured selective drug sensitivity score meets or exceeds 0 for Cc1cnc(-c2ccccc2C(C)C)nc1NCc1ccc(-n2ccnn2)cc1 [ML323] (top concentration 10000 nM)
### Response not satisfied

### Prompt Determine whether measured selective drug sensitivity score meets or exceeds 0 for COc1ccc(-c2ccc3ncc4c(c3c2)n(-c2ccc(N3CCNCC3)c(C(F)(F)F)c2)c(=O)n4C)cn1 [NVP-BGT226] (top concentration 1000 nM)
### Response not satisfied

### Prompt Determine whether measured selective drug sensitivity score meets or exceeds 0 for COc1cc(OC)c(/C=C/S(=O)(=O)Cc2ccc(OC)c(NCC(=O)O)c2)c(OC)c1 [Rigosertib] (top concentration 10000 nM)
### Response satisfied

### Prompt Determine whether measured selective drug sensitivity score meets or exceeds 0 for CN1CCN(c2ccc(C(=O)Nc3n[nH]c4ccc(Cc5cc(F)cc(F)c5)cc34)c(NC3CCOCC3)c2)CC1 [Entrectinib] (top concentration 1000 nM)
### Response not satisfied
